Values from paper PMC11943723

- protocol-details: MTT cell viability assay, BEAS-2B normal cells
- Format: cell-based
- particulars: human, BEAS-2B normal bronchial epithelial cells, 24 h incubation, read-out: Cytotoxicity EC50, BEAS 2B
Hi there, I'd appreciate the recorded EC50 at 24 h for every entry that follows.

Would you please look over these solved cases?
>>> result("COc1ccc(-c2nc(N)sc2SS[C@@H]2O[C@H](CO)[C@@H](O)[C@H](O)[C@H]2O)cc1 [Compound 5a]")
"> 25 µM"
>>> result("Cl.Nc1nc(-c2ccc(Br)cc2)c(SS[C@@H]2OC[C@@H](O)[C@H](O)[C@H]2O)s1 [Compound 5h]")
"23.5 µM"
>>> result("CC(=O)OC[C@H]1O[C@@H](SSc2sc(N)nc2-c2ccccc2)[C@H](OC(C)=O)[C@@H](OC(C)=O)[C@@H]1OC(C)=O [Compound 4b]")
"19 µM"
>>> result("Nc1nc(-c2ccc(Cl)cc2)c(SS[C@@H]2O[C@H](CO)[C@@H](O)[C@H](O)[C@H]2O)s1 [Compound 5d]")
"> 25 µM"

Field: EC50 at 24 h. Fill in for each record below.
1. CC(=O)O[C@@H]1[C@@H](OC(C)=O)[C@H](SSc2sc(N)nc2-c2ccc(C)cc2)OC[C@H]1OC(C)=O [Compound 4j]
2. Cl.Nc1nc(-c2ccc(Br)cc2)c(SS[C@@H]2O[C@H](CO)[C@@H](O)[C@H](O)[C@H]2O)s1 [Compound 5c]

a:
> 25 µM
> 25 µM

q: Consider the compound shown here: CC(=O)OC[C@H]1O[C@@H](SSc2sc(N)nc2-c2ccc(C)cc2)[C@H](OC(C)=O)[C@@H](OC(C)=O)[C@@H]1OC(C)=O [Compound 4e] What is its recorded EC50 at 24 h?
a: > 25 µM
